Molecular target: T1, Spindly_(1–142) (human, UniProt Q96EA4-1 1-142)
T1 chain: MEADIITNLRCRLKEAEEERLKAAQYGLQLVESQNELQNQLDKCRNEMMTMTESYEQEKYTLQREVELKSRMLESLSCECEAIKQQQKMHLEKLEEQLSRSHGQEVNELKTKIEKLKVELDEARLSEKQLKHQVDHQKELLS
Assay: ITC; first site (KD1)
reported-property: Kd (µM)
The reply should contain only the number, in µM.

## Task Given the binder NMKAGATSEGVLANFFNSLLSKKTGS [LIC1_(433–458)] , what is its reported Kd?
## Result 3.6
